B1: ZNF263 (parent)
chain: FGGNPRFLSLHRAHLGEEAHKCLE

Variants of: B1
protocol_summary: protein stability index of a GFP-peptide fusion (GPS, HEK-293T) (PSI 1-6); higher = more stable;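 further: lentivirally expressed fusions sorted by FACS into six bins by GFP to DsRed ratio, PSI derived from sequencing read proportions per bin multiplied by bin number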
recorded_conditions: c terminus: a fixed tail appended
value_type: protein stability index
Write no unit; give the number alone.

Reference set (5 entries):
* N4H | 1.97
* A13T | 1.98
* H20F | 1.98
* L15I | 1.54
* L15H | 2.33

Supply reported protein stability index belonging to this variant: `E24W`
3.02

Supply reported protein stability index belonging to this variant: `E17S`
2.07

Supply reported protein stability index belonging to this variant: `L15W`
2.28

Supply reported protein stability index belonging to this variant: `L15S`
1.73
